Catalogue of pIC50 values
# Subject Of Test: IRAK4 (Homo sapiens (Human), UniProt Q9NWZ3)
# Protocol Description: IRAK4 Biochemical HTRF Kinase Assay
# Condition Description: Table 5; multiple runs; read-out: IRAK4 HTRF biochemical: IC50
# Description: IRAK4 Biochemical HTRF Kinase Assay The binding capacities of certain bifunctional compounds of Formula (I) were determined using the CisBio HTRF KinEASE STK S1 Kit (#62ST1PEB, contains 5× Kinase buffer, 1× Detection Buffer, anti-phospho-serine/threonine-cryptate, Streptavidin-XL665, and STK-S1), which measures the phosphorylation of a biotinylated peptide substrate by IRAK4, according to the manufacturer's protocol. […]
# Sequence (Q9NWZ3 whole entry, species assumed): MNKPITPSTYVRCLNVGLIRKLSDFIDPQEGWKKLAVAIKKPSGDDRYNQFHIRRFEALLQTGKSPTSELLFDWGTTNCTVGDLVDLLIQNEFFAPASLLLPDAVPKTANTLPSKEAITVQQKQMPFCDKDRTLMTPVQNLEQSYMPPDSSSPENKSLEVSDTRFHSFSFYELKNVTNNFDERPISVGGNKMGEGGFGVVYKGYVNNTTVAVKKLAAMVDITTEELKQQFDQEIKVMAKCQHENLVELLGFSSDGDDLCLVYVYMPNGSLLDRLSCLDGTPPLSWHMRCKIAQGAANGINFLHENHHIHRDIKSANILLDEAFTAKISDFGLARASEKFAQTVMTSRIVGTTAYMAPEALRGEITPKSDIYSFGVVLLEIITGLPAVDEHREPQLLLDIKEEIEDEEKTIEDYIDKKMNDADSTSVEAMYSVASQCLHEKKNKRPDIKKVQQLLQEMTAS
Entry type: numeric. Quantity: pIC50, the -log10 of concentration in molar units.

>  <Compound>
CNc1cc(-c2ccc3cc(C#N)cnn23)ncc1-c1nnc([C@H]2CC[C@@H](NC(=O)CCCCCNc3ccc4c(c3)C(=O)N(C3CCC(=O)NC3=O)C4=O)CC2)s1 (stereo partly drawn)

>  <Subject Of Test>
IRAK4 (Homo sapiens (Human), UniProt Q9NWZ3)

>  <pIC50>
8.54

$$$$
>  <Compound>
Cc1ncsc1-c1ccc(CNC(=O)[C@@H]2C[C@@H](O)CN2C(=O)[C@@H](NC(=O)C2(F)CC2)C(C)(C)C)c(OCCOCCOCCOCCOCCOCCC(=O)N2CCN(c3nnc(-c4cnc(-c5ccc6cc(C#N)cnn56)cc4NC(C)C)s3)CC2)c1

>  <Subject Of Test>
IRAK4 (Homo sapiens (Human), UniProt Q9NWZ3)

>  <pIC50>
8.40

$$$$
>  <Compound>
CNc1cc(-c2ccc3cc(C#N)cnn23)ncc1-c1nnc([C@H]2CC[C@@H](NC(=O)[C@H]3C[C@@H](OCCNc4cccc5c4C(=O)N(C4CCC(=O)NC4=O)C5=O)C3)CC2)s1 (stereo partly drawn)

>  <Subject Of Test>
IRAK4 (Homo sapiens (Human), UniProt Q9NWZ3)

>  <pIC50>
8.92

$$$$

Could you now look at the following compound, please?
The value of pIC50 recorded for `CNc1cc(-c2ccc3cc(C#N)cnn23)ncc1-c1nnc(N2CC3(CCN(C(=O)COc4cc(-c5scnc5C)ccc4CNC(=O)[C@@H]4C[C@@H](O)CN4C(=O)[C@@H](NC(=O)C4(F)CC4)C(C)(C)C)CC3)C2)s1` when tested on IRAK4 (Homo sapiens (Human), UniProt Q9NWZ3) reads 9.15

====

# Subject Of Test: IRAK4 (Homo sapiens (Human))
# Protocol Description: IRAK4 Degradation HiBiT Assay
# Condition Description: Jurkat, read-out: Cellular IRAK4 HiBiT: Dmax, Table 4; HiBiT-tagged Jurkat cells, 4 hrs
# Sequence (Q9NWZ3 whole entry): as the sequence (Q9NWZ3 whole entry, species assumed) above
Catalogue of Dmax values
Your answer is read as %, so omit the unit and give the number.

>  <Compound>
CC(C)Nc1cc(-c2ccc3cc(C#N)cnn23)ncc1-c1nnc(N2CCN(C(=O)CCOCCNc3ccc4c(c3)C(=O)N(C3CCC(=O)NC3=O)C4=O)CC2)s1 (stereo not drawn) [Example 10]

>  <Subject Of Test>
IRAK4 (Homo sapiens (Human))

>  <Measured Property>
Dmax

>  <Meas Value>
103

$$$$

Reported Dmax for CN[C@@H](C)C(=O)N[C@H](C(=O)N1C[C@@H](NC(=O)CCCCC(=O)N2CCN(c3nnc(-c4cnc(-c5ccc6cc(C#N)cnn56)cc4NC(C)C)s3)CC2)C[C@H]1C(=O)N[C@@H]1CCCc2ccccc21)C1CCCCC1 [Example 51] was 48

Origin of values: patent US12528814B2
